Value source: ChEMBL document CHEMBL3988442

Measured Percent Effect, listed per entry.
System: Wolbachia pipientis
Assay: Anti-Wolbachia Cell-Based Screen
Type: functional
Set-up: scale not given: in the data most compounds retested in dose-response had high values
Settings: 5 µM
Hit rate of the full screen: of about 48,000 compounds, about 13,000 (27%) showed an effect of 50% or more. The list shows a part of the results.
outcome-measure: Percent Effect (%)

| compound-smiles | value-measured |
| --- | --- |
| O=C(NCCN1CCCCCC1)c1cccc(Cl)c1Cl | -3.616 |
| O=C(NCCCN1CCOCC1)c1ccnc(OCc2ccccc2)c1 | 13.78 |
| NCc1cccc(-c2cccnc2C(=O)NCCCN2CCOCC2)c1 | 156.6 |
| CN1CCN(C2CCN(CCOc3ccc(Cl)cc3)CC2)C1=O | 110.5 |
| CN1CCN(C2CCN(CCOc3cccc(Cl)c3)CC2)C1=O | 94.86 |
| CCN1CCN(C2CCN(Cc3ccc(Cl)s3)CC2)C1=O | -13.73 |
| Cn1cc(C(=O)N2C[C@@H]3COC[C@]3(COCc3cccnc3)C2)cn1 | 5.656 |
